These entries and their values trace back to patent US20210087522.

# subjectOfTest: T1, FisPCP, PCP of the shinorine gene cluster from Fischerella
# T1 chain: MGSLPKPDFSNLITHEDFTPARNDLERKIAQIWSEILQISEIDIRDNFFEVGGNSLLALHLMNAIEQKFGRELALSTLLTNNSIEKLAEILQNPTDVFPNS
reportedEndpoint: kcat (s⁻¹)

{"columns": ["protein", "unitsText", "resultValue"],
 "data": [
  ["SPPT, Sfp-like phosphopantetheinyl transferase (PPTase) from Synechocystis sp. PCC6803 (protein) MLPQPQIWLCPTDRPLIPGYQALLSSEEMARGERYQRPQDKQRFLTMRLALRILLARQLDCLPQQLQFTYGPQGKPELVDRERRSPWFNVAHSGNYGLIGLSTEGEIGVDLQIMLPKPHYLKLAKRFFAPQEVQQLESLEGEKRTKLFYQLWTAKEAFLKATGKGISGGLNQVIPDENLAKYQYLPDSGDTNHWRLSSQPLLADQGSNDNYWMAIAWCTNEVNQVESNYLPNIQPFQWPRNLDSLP", "s⁻¹", 0.0417],
  ["MPPT, Sfp-like phosphopantetheinyl transferase (PPTase) from Microcystis aeruginosa NIES843 (protein) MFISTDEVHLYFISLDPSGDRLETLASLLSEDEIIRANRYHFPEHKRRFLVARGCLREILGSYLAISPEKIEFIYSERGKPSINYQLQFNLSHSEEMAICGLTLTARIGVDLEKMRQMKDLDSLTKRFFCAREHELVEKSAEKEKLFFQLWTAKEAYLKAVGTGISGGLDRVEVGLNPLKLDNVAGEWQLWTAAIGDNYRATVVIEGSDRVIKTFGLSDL", "s⁻¹", 0.0317],
  ["APPT, Sfp-like phosphopantetheinyl transferase (PPTase) from Anabaena sp. PCC7120 (protein) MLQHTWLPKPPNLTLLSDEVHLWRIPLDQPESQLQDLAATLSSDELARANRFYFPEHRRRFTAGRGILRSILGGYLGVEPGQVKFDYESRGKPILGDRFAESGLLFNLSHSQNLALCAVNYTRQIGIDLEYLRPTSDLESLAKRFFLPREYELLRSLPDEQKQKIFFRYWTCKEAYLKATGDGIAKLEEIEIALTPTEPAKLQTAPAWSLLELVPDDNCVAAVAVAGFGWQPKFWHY", "s⁻¹", 0.0383],
  ["Sfp, phosphopantetheinyl transferase from Bacillus subtilis (protein) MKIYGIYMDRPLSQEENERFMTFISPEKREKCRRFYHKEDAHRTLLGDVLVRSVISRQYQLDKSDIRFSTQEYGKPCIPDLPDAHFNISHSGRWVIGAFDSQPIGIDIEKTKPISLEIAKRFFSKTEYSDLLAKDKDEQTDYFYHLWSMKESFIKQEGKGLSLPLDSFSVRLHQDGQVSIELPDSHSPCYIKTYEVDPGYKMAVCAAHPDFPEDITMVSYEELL", "s⁻¹", 0.0283]
]}
